Biological target: T1, extracellular domain of activin receptor type IIB (ActRIIBecd), biotinylated (Homo sapiens (Human), UniProt Q13705 27-117, amino-biotinylated with amine-PEG3-Biotin)
T1 construct: immobilised on a streptavidin-coated sensor chip; also called biotinylated ActRIIBecd; extracellular domain of ActRIIB
T1 sequence: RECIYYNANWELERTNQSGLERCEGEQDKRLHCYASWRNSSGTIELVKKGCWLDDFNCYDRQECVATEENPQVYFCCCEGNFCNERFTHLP
Assay: BIAcore SPR, biotinylated ActRIIBecd on chip; SD ±12.79 nM

[
  {
    "binder": "VDFKDVGWNDHAVAPPGYHAFYCHGECPFPLADHLNSDNHAIVQTKVNSV [Clone No. 14 domain (ActRIIBecd-associated polypeptide)]",
    "Kd (µM)": 0.0383
  }
]
